As shown below, each of these compounds has a reported selectivity ratio value.
# METHOD DESCRIPTION: Selectivity index, ratio of antiproliferative IC50 for African green monkey Vero cells to antiproliferative IC50 for human MCF7 cells
# Format: toxicity
# EXPERIMENTAL CONTEXT: Vero cells versus MCF7 cells, read-out: Ratio IC50
Write the value as a bare number.

Please review the following examples before continuing.
CC(=O)O[C@@]12CO[C@@H]1C[C@H](O)[C@@]1(C)C(=O)[C@H](O)C3=C(C)[C@@H](OC(=O)[C@H](O)[C@@H](NC(=O)OC(C)(C)C)c4ccccc4)C[C@@](O)([C@@H](OC(=O)c4ccccc4)[C@H]21)C3(C)C [DOCETAXEL ANHYDROUS]
13
C=C(C)[C@@H]1CC[C@]2(C(=O)O)CC[C@]3(C)[C@H](CC[C@@H]4[C@@]5(C)CC[C@@H](O)[C@](C)(CO)[C@@H]5CC[C@]43C)[C@@H]12
1.9
C=C(C)[C@@H]1CC[C@]2(C(=O)O)CC[C@]3(C)[C@H](CC[C@@H]4[C@@]5(C)CC[C@H](O)C(C)(C)[C@@H]5CC[C@]43C)[C@@H]12 [BETULINIC ACID]
1.3

Continue with the compound presented below.
# selectivity ratio lookup, item C=C(C)[C@@H]1CC[C@]2(C(=O)O)CC[C@]3(C)[C@H](CC[C@@H]4[C@@]5(C)CC[C@@H](O)C(C)(C)[C@@H]5CC[C@]43C)[C@@H]12 [EPIBETULINIC ACID]
1.2
